target: CGRP antigen; test: cell-based or functional assay
Param threshold (60%) applies to relative activity (%) vs C245; output yes (1) when value >= threshold, no (0) when value < threshold.

Known results for binders:
binder	class-name
hu229 (antibody, V domains shown, 3C1 HC-2/3C1 LC-4) VH: QVQLVQSGAEVKKPGASVKVSCKASGYTFTGYTMNWVRQAPGQRLEWMGLINPYIGNTHYNQKFKDRVTFTVDRSSSTAYMELSSLRSEDTAVYYCARELDSGFDYWGQGTLVTVSS VL: DVVMTQSPDSLAVSLGERATINCRSSQNIVHSNADTYLEWYQQKPGQPPKLLIYKVSNRFSGVPDRFSGSGSGTDFTLTISSLQAEDVAVYYCYQGSHVPWTFGQGTKLEIK	no (0)
hu226 (antibody, V domains shown, 3C1 HC-2/3C1 LC-1) VH: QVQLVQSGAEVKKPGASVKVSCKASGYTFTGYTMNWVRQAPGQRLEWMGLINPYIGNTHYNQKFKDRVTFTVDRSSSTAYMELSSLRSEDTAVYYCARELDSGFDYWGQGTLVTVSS VL: DVVMTQSPLSLPVTLGQPASISCRSSQNIVHSNGDTYLEWYQQRPGQSPRLLIYKVSNRFSGVPDRFSGSGSGTDFTLKISRVEAEDVGVYYCYQGSHVPWTFGQGTKLEIK	no (0)
hu227 (antibody, V domains shown, 3C1 HC-2/3C1 LC-2) VH: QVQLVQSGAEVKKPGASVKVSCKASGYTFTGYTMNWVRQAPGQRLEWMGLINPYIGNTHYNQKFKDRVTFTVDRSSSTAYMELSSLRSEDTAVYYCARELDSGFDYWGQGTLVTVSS VL: DVVMTQTPLSLSVTPGQPASISCRSSQNIVHSNGDTYLEWYLQKPGQSPQLLIYKVSNRFSGVPDRFSGSGSGTDFTLKISRVEAEDVGVYYCYQGSHVPWTFGQGTKLEIK	yes (1)

Now for a further binder.
Hi, just wondering whether hu224 (antibody, human IgG4 S228P, kappa, V domains shown) VH: QVQLVQSGAEVKKPGASVKVSCKASGYSFTGYTMNWVRQAPGQRLEWMGLINPYIGNTHYNQKFKDRVTFTVDRSSSTAYMELSSLRSEDTAVYYCARELDSGFDYWGQGTLVTVSS VL: DVVMTQSPDSLAVSLGERATINCRSSQNIVHSNGDTYLEWYQQKPGQPPKLLIYKVSNRFSGVPDRFSGSGSGTDFTLTISSLQAEDVAVYYCYQGSHVPWTFGQGTKLEIKR shows relative activity (%) vs C245 of 60% or higher.
yes (1)
